Hi there, I'd appreciate the recorded pIC50 for every entry that follows.
Target: human recombinant acetylcholinesterase (hAChE) (Homo sapiens, UniProt P22303)
Construct: purchased Sigma-Aldrich
Sequence (P22303 32-614): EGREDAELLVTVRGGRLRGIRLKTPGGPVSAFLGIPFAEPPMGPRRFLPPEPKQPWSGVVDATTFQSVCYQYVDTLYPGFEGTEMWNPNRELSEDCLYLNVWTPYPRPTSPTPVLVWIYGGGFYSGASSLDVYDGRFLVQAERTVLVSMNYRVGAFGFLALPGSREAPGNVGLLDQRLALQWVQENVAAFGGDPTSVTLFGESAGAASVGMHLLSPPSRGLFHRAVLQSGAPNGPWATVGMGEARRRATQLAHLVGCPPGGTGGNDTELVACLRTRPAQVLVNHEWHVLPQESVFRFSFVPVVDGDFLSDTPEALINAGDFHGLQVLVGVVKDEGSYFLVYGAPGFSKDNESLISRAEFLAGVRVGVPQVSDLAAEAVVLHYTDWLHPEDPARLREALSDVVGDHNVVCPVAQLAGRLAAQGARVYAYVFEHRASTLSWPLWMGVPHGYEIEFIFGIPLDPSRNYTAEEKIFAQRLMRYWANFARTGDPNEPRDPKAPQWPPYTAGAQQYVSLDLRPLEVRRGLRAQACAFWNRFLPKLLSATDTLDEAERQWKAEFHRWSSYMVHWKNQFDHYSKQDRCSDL
Assay: Cholinesterase inhibition assay (Ellman), hAChE
Assay type: biochemical
Settings: read-out: hAChE IC50
Friendly reminder that pIC50 comes from taking -log10 of the concentration in mol/L.

Data point: CCOC(=O)C1=C(C)N(CCC2CCN(Cc3ccccc3)CC2)C(=O)NC1c1ccc(OCCCCN2CCOCC2)cc1 (centres unmarked) ; pIC50 = 6.91

According to the records, this molecule CCOC(=O)C1=C(C)N(CCC2CCN(Cc3ccccc3)CC2)C(=O)NC1c1ccc(OCCCCCN2CCCC2)cc1 (centres unmarked) displays pIC50 of 7.06

Lab note: measured pIC50 of CCOC(=O)C1=C(C)N(CCC2CCN(Cc3ccccc3)CC2)C(=O)NC1c1ccc(OCCCCCCN2CCCC2)cc1 (centres unmarked) was 7.05

Lab note: measured pIC50 of CCOC(=O)C1=C(C)N(CCC2CCN(Cc3ccccc3)CC2)C(=O)NC1c1ccc(OCCCCCCN2CCCCC2)cc1 (centres unmarked) was 7.07

Form field pIC50, entry CCOC(=O)C1=C(C)N(CCC2CCN(Cc3ccccc3)CC2)C(=O)NC1c1ccc(OCCCCCCN2CCOCC2)cc1 (centres unmarked) : 6.94

Provenance of the data: patent EP4168396B1
